Attribute: DC50
Molecular target: STAT6 (Homo sapiens, UniProt P42226)
Construct: These cells express endogenous STAT6; host or cells: HeLa LgBiT clone 4.14
Sequence (P42226 whole entry): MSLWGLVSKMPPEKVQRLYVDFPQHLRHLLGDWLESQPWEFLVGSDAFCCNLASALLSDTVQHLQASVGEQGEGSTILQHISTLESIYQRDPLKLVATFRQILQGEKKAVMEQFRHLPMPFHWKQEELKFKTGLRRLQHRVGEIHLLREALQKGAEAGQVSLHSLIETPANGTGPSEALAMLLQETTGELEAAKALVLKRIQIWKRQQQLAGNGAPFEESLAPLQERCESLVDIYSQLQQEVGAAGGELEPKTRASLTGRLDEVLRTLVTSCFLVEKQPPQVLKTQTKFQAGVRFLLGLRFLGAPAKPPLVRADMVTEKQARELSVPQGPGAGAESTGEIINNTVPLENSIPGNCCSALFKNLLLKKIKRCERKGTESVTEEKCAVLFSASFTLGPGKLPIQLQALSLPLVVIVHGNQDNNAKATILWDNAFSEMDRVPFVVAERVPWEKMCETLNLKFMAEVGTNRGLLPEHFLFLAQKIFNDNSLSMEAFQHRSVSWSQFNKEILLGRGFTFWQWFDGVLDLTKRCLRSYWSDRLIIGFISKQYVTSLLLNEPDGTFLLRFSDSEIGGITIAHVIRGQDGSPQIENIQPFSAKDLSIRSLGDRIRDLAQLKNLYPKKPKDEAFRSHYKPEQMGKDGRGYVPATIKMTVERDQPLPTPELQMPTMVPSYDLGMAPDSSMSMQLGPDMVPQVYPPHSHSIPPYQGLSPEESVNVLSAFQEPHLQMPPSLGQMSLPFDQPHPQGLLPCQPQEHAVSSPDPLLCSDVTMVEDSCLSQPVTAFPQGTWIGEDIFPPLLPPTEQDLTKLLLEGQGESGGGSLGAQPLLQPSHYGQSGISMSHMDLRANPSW
Assay: Stat6 Degrader Assay (HiBiT based, HeLa LgBiT clone 4.14)
Type: cell-based
Conditions: HeLa LgBiT clone 4.14 HiBiT-STAT6, 4-24 h incubation; values given for compounds with >80% Emax; geometric mean; read-out: STAT6 degradation DC50
Protocol: This was a HiBit based assay. A HeLa cell line stably transfected with a small protein, LgBit (Large Bit) was obtained from Promega. These cells express endogenous STAT6. […] Single cell clones were prepared and the clone 4.14 was selected for the assay based on that clone showing high luminescence, high STAT6 phosphorylation upon stimulation with IL-4, and inhibition of luminescence when cells were treated with STAT6 siRNA. […]
Number only, in nM; omit the unit.

CNc1ccn(-c2ccnc3c2cc([C@H](C)N2CC=C(c4c(C)cc(C(=O)N5CCC(CN6CCN(Cc7cc8c(cc7F)n([C@@H]7CCC(=O)NC7=O)c(=O)n8C)C[C@@H]6C)CC5)cc4F)CC2)n3C)c(=O)c1 (single isomer, unassigned) [Example 3u209]; 7.3
CNc1cc(=O)n(-c2ccnc3c2cc(CN2CC=C(c4c(F)cc(C(=O)N5CCC(CN6CCN(Cc7ccc8c(c7)n(C7CC7)c(=O)n8[C@@H]7CCC(=O)NC7=O)C[C@@H]6C)CC5)cc4F)CC2)n3C)cc1F (single isomer, unassigned) [Example 3u215]; 3.5
CNc1ccn(-c2ccnc3c2cc([C@H](C)N2CC=C(c4c(C)cc(C(=O)N5CCn6nc(CN7CCC(c8ccc9c(c8)n(C8CC8)c(=O)n9C8CCC(=O)NC8=O)CC7)cc6C5)cc4F)CC2)n3C)c(=O)c1 (stereo partly shown) [Example 3u254]; 0.4

Now let's try a different one.
Exercise: Form entry - test system: STAT6 (Homo sapiens, UniProt P42226); read-out: DC50; molecule: C[C@H]1CN(Cc2ccc3c(c2)n(C2CC2)c(=O)n3C2CCC(=O)NC2=O)CCN1CC1CCN(C(=O)c2cc(F)c(C3CCN([C@@H](C)c4cc5c(-n6ccc7c(c6=O)CCN7)ccnc5n4C)CC3)c(F)c2)CC1 (stereo partly shown) [Example 3u196]
Key: 0.3

* * *

biological target: STAT6 (Homo sapiens, UniProt P42226); construct: These cells express endogenous STAT6; host or cells: HeLa LgBiT clone 4.14; experiment: Stat6 Degrader Assay (HiBiT based, HeLa LgBiT clone 4.14); type: cell-based; conditions: HeLa LgBiT clone 4.14 HiBiT-STAT6, 4-24 h incubation; values given for compounds with >80% Emax; geometric mean; read-out: STAT6 degradation DC50
Attribute: log10 DC50
Record value = log10 of DC50 given in nM.

// below: answered compounds
CNc1cc(=O)n(-c2ccnc3c2cc(CN2CCC(c4c(F)cc(C(=O)N5CCC(CN6CCN(Cc7ccc8c(c7)n(C)c(=O)n8C7CCC(=O)NC7=O)C[C@@H]6C)CC5)cc4F)CC2)n3C)cc1F (stereo partly drawn); -0.15
CNc1cc(=O)n(-c2ccnc3c2cc(CN2CCC(c4c(F)cc(C(=O)N5CCC(CN6CCN(Cc7ccc8c(c7)n(C)c(=O)n8[C@@H]7CCC(=O)NC7=O)CC6)CC5)cc4F)CC2)n3C)cc1F (single isomer, unassigned); 0.46
CNc1cc(=O)n(-c2ccnc3c2cc([C@H](C)N2CC=C(c4c(C)cc(C(=O)N(C)c5ccc(N6CCC(O)(Cc7ccc8c(c7)C7(CC7)C(=O)N8C7CCC(=O)NC7=O)CC6)nc5)cc4F)CC2)n3C)cc1F (stereo partly drawn); 0.04

Exercise: Would you mind telling me what log10 DC50 value was observed for CNc1ccn(-c2ccnc3c2cc(CN2CCC(c4c(F)cc(C(=O)N5CCC(CN6CCN(Cc7ccc8c(c7)n(C)c(=O)n8[C@H]7CCC(=O)NC7=O)CC6)CC5)cc4F)CC2)n3C)c(=O)c1 (single isomer, unassigned) ?
Key: 0.34

Exercise: Check CNc1ccn(-c2ccnc3c2cc([C@H](C)N2CC=C(c4c(C)cc(C(=O)N5CCn6c(nnc6C6CCN(Cc7ccc8c(c7)n(C)c(=O)n8C7CCC(=O)NC7=O)CC6)C5)cc4F)CC2)n3C)c(=O)c1 (stereo partly drawn) too.
Key: 1.76

Exercise: Check CNc1ccn(-c2ccnc3c2cc([C@H](C)N2CC=C(c4c(C)cc(C(=O)N5CCC(CN6CCN(c7ccc8c(c7)C(C)(C)C(=O)N8[C@@H]7CCC(=O)NC7=O)CC6)CC5)cc4F)CC2)n3C)c(=O)c1 (single isomer, unassigned) too.
Key: 0.60

Exercise: Check CNc1cc(=O)n(-c2ccnc3c2cc(CN2CCC(c4c(F)cc(C(=O)N5CCC(CN6CCN(Cc7ccc8c(c7)C(C)(C)C(=O)N8C7CCC(=O)NC7=O)CC6)CC5)cc4F)CC2)n3C)cc1F (stereo not drawn) too.
Key: 1.08

Exercise: Check CNc1ccn(-c2ccnc3c2cc(CN2CCC(c4c(F)cc(C(=O)N5CCC(CN6CCN(Cc7ccc8c(c7)n(C7CC7)c(=O)n8C7CCC(=O)NC7=O)C[C@@H]6C)CC5)cc4F)CC2)n3C)c(=O)c1 (stereo partly drawn) too.
Key: 0.54

Exercise: Check CNc1cc(=O)n(-c2ccnc3c2cc([C@H](C)N2CC=C(c4c(C)cc(C(=O)N(C)c5ccc(C6CCN(Cc7ccc8c(c7)C(C)(C)C(=O)N8[C@H]7CCC(=O)NC7=O)CC6)cc5)cc4F)CC2)n3C)cc1F (single isomer, unassigned) too.
Key: -1.00

* * *

Attribute: DC50
molecular target: STAT6 (Homo sapiens, UniProt P42226); construct: These cells express endogenous STAT6; host or cells: HeLa LgBiT clone 4.14; assay: Stat6 Degrader Assay (HiBiT based, HeLa LgBiT clone 4.14); assay type: cell-based; details: HeLa LgBiT clone 4.14 HiBiT-STAT6, 4-24 h incubation; values given for compounds with >80% Emax; geometric mean; read-out: STAT6 degradation DC50
Number only, in nM; omit the unit.

// below: answered compounds
CNc1cc(=O)n(-c2ccnc3c2cc([C@H](C)N2CC=C(c4c(C)cc(C(=O)N5CCC(CN6CCN(Cc7ccc8c(c7)C7(CC7)C(=O)N8C7CCC(=O)NC7=O)CC6)CC5)cc4F)CC2)n3C)cc1F (some centres unmarked); 1.6
CNc1cc(=O)n(-c2ccnc3c2cc([C@H](C)N2CC=C(c4c(C)cc(C(=O)N5CCC(CN6CCN(c7ccc8c(c7)C(C)(C)C(=O)N8C7CCC(=O)NC7=O)CC6)CC5)cc4F)CC2)n3C)cc1F (some centres unmarked); 21.7
CNc1cc(=O)n(-c2ccnc3c2cc([C@H](C)N2CC=C(c4c(C)cc(C(=O)N5CCC(CC6CCN(c7ccc8c(c7)C7(CC7)C(=O)N8C7CCC(=O)NC7=O)CC6)CC5)cc4F)CC2)n3C)cc1F (some centres unmarked); 22.6

Exercise: Would you mind telling me what DC50 value was observed for CNc1ccn(-c2ccnc3c2cc(CN2CCC(c4c(F)cc(C(=O)N5CCC(CN6CCN(Cc7ccc8c(c7)C7(CC7)C(=O)N8C7CCC(=O)NC7=O)C[C@@H]6C)CC5)cc4F)CC2)n3C)c(=O)n1 (some centres unmarked) ?
Key: 3.2

Exercise: Check CNc1ccn(-c2ccnc3c2cc([C@H](C)N2CC=C(c4c(C)cc(C(=O)N5CCC(CN6CCN(Cc7ccc8c(c7)C7(CC7)C(=O)N8C7CCC(=O)NC7=O)C[C@@H]6C)CC5)cc4F)CC2)n3C)c(=O)c1 (mixture of isomers) too.
Key: 0.5

Exercise: Check CNc1ccn(-c2ccnc3c2cc([C@H](C)N2CC=C(c4c(C)cc(C(=O)N5CCC(CN6CCN(c7cc8c(cc7F)n([C@H]7CCC(=O)NC7=O)c(=O)n8C)CC6)CC5)cc4F)CC2)n3C)c(=O)c1 (single isomer, unassigned) too.
Key: 1.4

Exercise: Check CNc1cc(=O)n(-c2ccnc3c2cc([C@H](C)N2CC=C(c4c(F)cc(C(=O)N5CCC(CN6CCN(Cc7ccc8c(c7)n(C7CC7)c(=O)n8C7CCC(=O)NC7=O)C[C@@H]6C)CC5)cc4F)CC2)n3C)cc1F (some centres unmarked) too.
Key: 1.1

Exercise: Check CNc1ccn(-c2ccnc3c2cc([C@H](C)N2CC=C(c4c(C)cc(C(=O)N5CCC(CN6CCN(Cc7cc8c(cc7F)N([C@@H]7CCC(=O)NC7=O)C(=O)C87CC7)C[C@@H]6C)CC5)cc4F)CC2)n3C)c(=O)c1 (single isomer, unassigned) too.
Key: 1.6

Exercise: Check C[C@H]1CN(Cc2ccc3c(c2)C(C)(C)C(=O)N3C2CCC(=O)NC2=O)CCN1CC1CCN(C(=O)c2cc(F)c(C3CCN(Cc4cc5c(-n6ccc7c(c6=O)CCN7)ccnc5n4C)CC3)c(F)c2)CC1 (some centres unmarked) too.
Key: 3.4

Exercise: Check C[C@H]1CN(Cc2ccc3c(c2)n(C)c(=O)n3C2CCC(=O)NC2=O)CCN1CC1CCN(C(=O)c2cc(F)c(C3CCN(Cc4cc5c(-n6ccc7c(c6=O)CCN7)ccnc5n4C)CC3)c(F)c2)CC1 (some centres unmarked) too.
Key: 0.5

Exercise: Check CNc1cc(=O)n(-c2ccnc3c2cc([C@H](C)N2CC=C(c4c(C)cc(C(=O)N5CCC(CN6CCN(Cc7ccc8c(c7)C7(CCC7)C(=O)N8C7CCC(=O)NC7=O)CC6)CC5)cc4F)CC2)n3C)cc1F (some centres unmarked) too.
Key: 3.1
